Each item that follows carries a reported melting point.
Experimental readout: melting point

[
  {
    "Molecular string": "CNC(=O)[C@H]1O[C@@H](n2cnc3c(NCc4cc(Cl)ccc4OCc4ccccc4Cl)ncnc32)[C@H](O)[C@@H]1N",
    "Experimental readout": "melting point",
    "Observed": "88 to 92 °C"
  },
  {
    "Molecular string": "CNC(=O)[C@H]1O[C@@H](n2cnc3c(NCc4cc(Cl)ccc4OCc4cc(OC)ccc4OC)ncnc32)[C@H](O)[C@@H]1N",
    "Experimental readout": "melting point",
    "Observed": "112 to 115 °C"
  },
  {
    "Molecular string": "CNC(=O)[C@H]1O[C@@H](n2cnc3c(NCc4cc(Cl)ccc4OCc4ccc(C)cc4)ncnc32)[C@H](O)[C@@H]1N",
    "Experimental readout": "melting point",
    "Observed": "82 to 86 °C"
  }
]
